Sourced from PubChem BioAssay AID777

molecular target: Cytochrome P450 2C9 (Homo sapiens) (UniProt P11712); experiment: blockers of cytochrome P450 2C9 activity – biochemical, luminescence, ADME assay, primary screen (AID 777); settings: CYP2C9 Supersomes, luciferin-H conversion, at 5 µM
Sequence (P11712 whole entry, looked up): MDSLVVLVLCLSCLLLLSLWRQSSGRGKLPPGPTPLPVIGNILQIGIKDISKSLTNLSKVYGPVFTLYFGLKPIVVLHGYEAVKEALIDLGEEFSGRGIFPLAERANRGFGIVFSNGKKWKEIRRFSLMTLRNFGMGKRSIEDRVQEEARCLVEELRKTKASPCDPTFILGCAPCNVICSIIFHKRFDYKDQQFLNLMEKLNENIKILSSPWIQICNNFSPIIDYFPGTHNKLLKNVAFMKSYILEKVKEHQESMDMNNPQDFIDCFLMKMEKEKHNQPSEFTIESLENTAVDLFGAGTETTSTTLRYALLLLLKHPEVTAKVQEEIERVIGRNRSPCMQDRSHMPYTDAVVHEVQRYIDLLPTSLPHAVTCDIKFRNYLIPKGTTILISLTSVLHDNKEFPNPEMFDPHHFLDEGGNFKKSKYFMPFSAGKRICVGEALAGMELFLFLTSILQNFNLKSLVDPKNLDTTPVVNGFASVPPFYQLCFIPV
Among all 96,000 compounds or so, about 19,000 (20%) were called active.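 The calls were made as follows: active = blocking of liver enzyme CYP2C9 beyond about 50% at 5 µM (limit read from the data); inactive = the rest.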 These entries were drawn from the full list.
Pick one and only one: t for active, f for inactive

Check out these entries, answers already filled in.
- Compound: "CN(C(=O)c1ccccn1)c1nnc(-c2ccccn2)s1"
  Target of assay: "Cytochrome P450 2C9 (Homo sapiens) (UniProt P11712)"
  Assigned category: "f"
- Compound: "COc1cccc(OCC(=O)Nc2ccccc2C(N)=O)c1"
  Target of assay: "Cytochrome P450 2C9 (Homo sapiens) (UniProt P11712)"
  Assigned category: "f"
- Compound: "CCCCC(=O)Nc1nc(C)c(-c2csc(Nc3ccc(Cl)cc3)n2)s1"
  Target of assay: "Cytochrome P450 2C9 (Homo sapiens) (UniProt P11712)"
  Assigned category: "t"

// next entry
Inquiry: For `CC(C)(C)c1cc(C(=O)NCc2cccnc2)ccn1` , which call appears in the assay record?
Reply text: f

* * *

target: Cytochrome P450 2C9 (Homo sapiens) (UniProt P11712); assay: blockers of cytochrome P450 2C9 activity – biochemical, luminescence, ADME assay, primary screen (AID 777); settings: CYP2C9 Supersomes, luciferin-H conversion, at 5 µM, stronger effect = higher value
Screen size: about 96,000 compounds; about 19,000 (20%) were called active. These entries were drawn from the full list.
Rule: inhibition of 50% or more gives 1; anything lower gives -1.

- Compound: "O=c1cc(N2CCN(Cc3ccccc3)CC2)c(-c2ccccc2)n[nH]1"
  Assigned category: -1
- Compound: "O=C1c2ccccc2C(=O)c2c1cccc2N1CCN(Cc2ccccc2)CC1"
  Assigned category: 1
- Compound: "Cc1noc(C)c1S(=O)(=O)Nc1ccc(C(=O)O)cc1"
  Assigned category: -1
- Compound: "O=C1c2ccccc2C(=O)c2c1cccc2N1CCN(CCO)CC1"
  Assigned category: -1

// next entry
Inquiry: Is inhibition for CC(C)C1C2=C(CC(C)(C)CC2=O)ON1c1ccccc1 (stereo unspecified) at or above 50%?
Reply text: -1

* * *

molecular target: Cytochrome P450 2C9 (Homo sapiens) (UniProt P11712); assay: blockers of cytochrome P450 2C9 activity – biochemical, luminescence, ADME assay, primary screen (AID 777); settings: CYP2C9 Supersomes, luciferin-H conversion, at 5 µM
Hit rate of the full screen: of about 96,000 compounds, about 19,000 (20%) were called active.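 The calls were made as follows: active = blocking of liver enzyme CYP2C9 beyond about 50% at 5 µM (limit read from the data); inactive = the rest.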 Not all results are given here.
Pick one and only one: yes = active, no = inactive

Check out these entries, answers already filled in.
- Compound: "CC(C)c1ccc(N2CC(C(=O)Nc3nccs3)CC2=O)cc1 (centres undefined)"
  Assigned category: "yes"
- Compound: "Cc1nc2ccccc2c(=O)n1CCCn1ccnc1"
  Assigned category: "no"
- Compound: "CCCc1ccc(-c2c(C)sc(NC(=O)c3ccnn3C)c2C#N)cc1"
  Assigned category: "no"
- Compound: "CCOC(=O)N1CCN(S(=O)(=O)c2cc3c(cc2C)NC(=O)CO3)CC1"
  Assigned category: "no"
- Compound: "CC12CN(Cc3ccccc3)CC(C)(CN(Cc3ccccc3)C1)C2=NO"
  Assigned category: "no"

Inquiry: For CN1OC(COC(=O)c2ccc(Cl)cc2)CC1c1ccccc1 (centres undefined) , which call appears in the assay record?
Reply text: no

Inquiry: For `Cc1ccc(C(=O)Nc2nnc(-c3ccncc3)s2)o1` , which call appears in the assay record?
Reply text: yes

Inquiry: For `CN(C)c1nc2n(c(=O)n1)CCO2` , which call appears in the assay record?
Reply text: no

Inquiry: For CCC(CC)C(=O)N1CC(=O)Nc2ccc(Br)cc2C1c1ccccc1 (centres undefined) , which call appears in the assay record?
Reply text: no

Inquiry: For `CCOc1cccc(C(=O)Nc2cnn(Cc3ccccc3)c2)c1` , which call appears in the assay record?
Reply text: no

Inquiry: For `Cc1ccc2c(c1)N(C(=O)CCC(=O)N1CCc3ccccc3C1)CCO2` , which call appears in the assay record?
Reply text: no

Inquiry: For `Cc1cc(N2CCCC2)n2nc(C)c(-c3ccccc3)c2n1` , which call appears in the assay record?
Reply text: no

Inquiry: For `CCC(=O)NNc1cc(=O)c2c(=O)n(C)c(=O)n(C)c2[nH]1` , which call appears in the assay record?
Reply text: no

Inquiry: For `CC1(C)Cc2ccccc2-c2nc(CN3CCOCC3)[nH]c(=O)c21` , which call appears in the assay record?
Reply text: no

Inquiry: For `Cc1ccc(C(=O)COc2cccc(NC(=O)c3ccco3)c2)cc1` , which call appears in the assay record?
Reply text: no

Inquiry: For CCc1ccc(N2CC(C(=O)NC3=NCCS3)CC2=O)cc1 (centres undefined) , which call appears in the assay record?
Reply text: no

Inquiry: For `Cc1occc1C(=O)Nc1nnc(C2CCCCC2)s1` , which call appears in the assay record?
Reply text: no

Inquiry: For `CC(=NC1CCN(Cc2ccccc2)CC1)c1c(O)[nH]c(=O)[nH]c1=O` , which call appears in the assay record?
Reply text: no

Inquiry: For `O=c1nc(N2CCOCC2)nc2n1CCO2` , which call appears in the assay record?
Reply text: no

Inquiry: For `Cc1ccc(S(=O)(=O)c2nc(NCCCn3ccnc3)sc2Cl)cc1` , which call appears in the assay record?
Reply text: yes

Inquiry: For `CCC(C(=O)Nc1ncccn1)(C(F)(F)F)C(F)(F)F` , which call appears in the assay record?
Reply text: no

Inquiry: For CCOCCCNC(=O)C(NC(=O)CNC(=O)c1ccccc1)c1ccc(C)cc1 (centres undefined) , which call appears in the assay record?
Reply text: no

Inquiry: For `O=C1CCN(C(=O)Nc2ccccc2)N1` , which call appears in the assay record?
Reply text: no

Inquiry: For `Cc1ccc(C(=O)Nc2nnc(-c3cccs3)s2)cc1C` , which call appears in the assay record?
Reply text: no
